Data credit: patent US10208065B2

Each entry below carries its recorded Solubility (1 hour).
- ASSAY_METHOD_TEXT: Solubility in simulated biological media (37° C., HPLC)
- Type: physicochemical
- CONDITION_SET: simulated artificial intestinal juice-satiety, 1 hour
Where a name gives a salt, the structure may show the parent alone.
Return type: number; implicit unit µg/mL.

CN1C(=O)COc2c1cnc1ccc(Sc3nnc4c(F)cc(-c5cnn(C)c5)cn34)cc21 [Crystal form III of the 1,5-naphthalenedisulfonate salt] : 48
CN1C(=O)COc2c1cnc1ccc(Sc3nnc4c(F)cc(-c5cnn(C)c5)cn34)cc21 [Crystal form III of mesylate] : 20
CN1C(=O)COc2c1cnc1ccc(Sc3nnc4c(F)cc(-c5cnn(C)c5)cn34)cc21 [Crystal form III of free base] : 11
CN1C(=O)COc2c1cnc1ccc(Sc3nnc4c(F)cc(-c5cnn(C)c5)cn34)cc21 [Crystal form I of phosphate] : 32
CN1C(=O)COc2c1cnc1ccc(Sc3nnc4c(F)cc(-c5cnn(C)c5)cn34)cc21 [Crystal form I of free base] : 4

Now consider a different molecule.
Q) What measured Solubility (1 hour) goes with CN1C(=O)COc2c1cnc1ccc(Sc3nnc4c(F)cc(-c5cnn(C)c5)cn34)cc21 [Amorphous free base] ?
A) 3
